RUN CONDITIONS: in formic acid, 313 K
MEASURED PROPERTY: solubility (mole fraction)
Form rule: numeric answer, no unit written next to it.

I have this molecule here, `Cc1ccc(S(=O)(=O)[O-])cc1Cl.[Na+]` , and I need its recorded solubility (mole fraction). 0.0446

* * *

RUN CONDITIONS: in water, 322.4 K
MEASURED PROPERTY: solubility (mole fraction)
The response must contain the number and no unit.

Value lookup for solubility (mole fraction); key = `Cc1ccc(S(=O)(=O)[O-])cc1Cl.[Na+]` 0.0111

* * *

RUN CONDITIONS: in formic acid, 301.4 K
MEASURED PROPERTY: solubility (mole fraction)
Respond numerically, and do not add a unit to the figure.

Looking for the measured solubility (mole fraction) of `Cc1ccc(S(=O)(=O)[O-])cc1Cl.[Na+]` , can you help? 0.0415
